The reported numbers originate from PubChem BioAssay (NCI).

Tested on: OVCAR-8 ovarian
Assay: NCI tumour cell line growth inhibition, 48 h
Measured TGI by item

| molecule | TGI |
| --- | --- |
| O=[N+]([O-])C(=C/c1ccccc1)/C(=C\c1ccccc1)[N+](=O)[O-] | 47.1 µM |
| CN(C)CCNC(=O)c1cccc2c1nc(-c1ccc(F)cc1)c1ccccc12 | 18.2 µM |
| O=[N+]([O-])c1ccc(C2=Nc3ccccc3S(=O)C(c3ccccc3)C2)cc1 (stereo not given) | > 100 µM |
| COc1ccc(-n2c(CCC(=O)O)nc3c2C(=O)c2ccccc2C3=O)cc1 | > 100 µM |
| COC1(CC[C@@H](C)COC2OC(CO)C(O)C(O)C2O)O[C@H]2C[C@H]3[C@@H]4CC=C5C[C@@H](OC6OC(CO)C(OC7OC(C)C(O)C(O)C7O)C(O)C6OC6OC(C)C(O)C(O)C6O)CC[C@]5(C)[C@H]4CC[C@]3(C)[C@H]2[C@@H]1C (stereo not given in full) | 8.47 µM |
| c1cc(N[C@@H]2CCNC2)nc(-c2cnc3ccc(-c4cn[nH]c4)cn23)c1 | > 92.8 µM |
| O=C(c1ccc(O)cc1O)C1C(c2ccc(O)cc2)OC(c2ccc(O)cc2)C1C(=O)c1ccc(O)cc1O (stereo not given) | 56.8 µM |
| CC1(C)CCC(Sc2ccccc2)O1 (stereo not given) | > 100 µM |
| COc1cc(CNCCCCCCN2C(=O)c3cccc4cccc(c34)C2=O)ccc1O | 21.3 µM |
| CC1=C(c2nc3ccccc3s2)C(=O)OC1(C)C | > 100 µM |
| FC(F)(F)c1ccc2c(c1)N(CCCNCCN1CCOCC1)c1ccccc1S2 | 32.8 µM |
| CCCCC1=CSC(c2ccccc2)=C(c2ccccc2)S1 | > 100 µM |
| Clc1ccc(Cl)c(N=Nc2cc3c4c(c2)CCN4CCC3)c1 | > 10 µM |
| COC(=O)C(CC(C)C)NC(=O)C(NC(=O)c1ccc(-c2ccc(Cl)cc2Cl)o1)C(C)C (stereo not given) | > 100 µM |
| CC1=NN=C(C)C1N=Nc1ccc2nc(C)[nH]c2c1 | > 100 µM |
| CC(C)/C=C1\CCC(CN(C)C)C1=O (stereo not given) | 6.97 µM |
| CC1(C)C2CCC3CC(CCC#N)CCC3C21C#N (stereo not given) | > 100 µM |
| NC(N)=N/N=C/c1c(-c2ccsc2)nc2n1CCS2 | > 100 µM |
| FC(F)(F)c1ccccc1C1SCC2=Nc3ccccc3CN21 (stereo not given) | 30.5 µM |
| O=C(NCCN1CCCCC1)c1ccc(Br)cc1 | > 100 µM |
| O=S1(=O)N2CN3CN(C2)CN1C3 | 110 µM |
| CN(C)c1ccc(/C=C/C(=O)c2ccc(O)cc2)cc1 | > 100 µM |
| CCCCCC(=O)N[C@@H](c1ccco1)[C@@H](O)C(=O)O[C@H]1C[C@@]2(O)[C@@H](OC(=O)c3ccccc3)[C@@H]3[C@]4(OC(C)=O)CO[C@@H]4C[C@H](O)[C@@]3(C)C(=O)[C@H](OC(C)=O)C(=C1C)C2(C)C | > 25 µM |
| FC(F)(F)c1ccc(C2ON=C(c3ccccc3)N2C23CC4CC(CC(C4)C2)C3)cc1 (stereo not given) | > 10 µM |
| CO/C(N)=C(\C#N)N=Cc1ccc2ccccc2c1 | > 100 µM |
| CCN(CC)c1ccc2nc3ccc(N=Nc4ccc(N(C)C)cc4)cc3[n+](-c3ccccc3)c2c1 | 1.48 µM |
| CN=C(N)c1ccc(N=C(N)c2ccc(-c3ccc(C(N)=Nc4ccc(C(N)=NC)cc4)cc3)cc2)cc1 | > 100 µM |
| CN(C)CCN(C)P12(Oc3ccccc3O1)Oc1c(Cl)c(Cl)c(Cl)c(Cl)c1O2 | > 100 µM |
| CCNC(=O)C(C)C1CCC2(C)C=CC(=O)C(C)=C2C1O (stereo not given) | > 100 µM |
| CSC1=NC(=Nc2c(C)cccc2C)C2(CCC(C(C)(C)C)CC2)N1c1ccc(Cl)cc1 (stereo not given) | > 100 µM |
| COC(=O)C1CC2C=CC=CC(=O)C2(C)C1 (stereo not given) | > 100 µM |
| Oc1ccc(Br)cc1C=Nc1cccc(C(F)(F)F)c1 | > 100 µM |
| OCC1O[C@H](O[C@@H]2CCCN3CC(O)C(O)[C@@H]23)C(O)C(O)C1O (stereo not given in full) | > 100 µM |
| Cc1nc(N)nc(N)c1CCCCc1ccc(N)cc1 | 20.6 µM |
| O=C1Oc2ccccc2C1C/C(=N\Nc1ccccc1)c1ccccc1O (stereo not given) | > 100 µM |
| Nc1ccc2n[se]nc2c1 | > 100 µM |
| COc1ccc2[nH]c3c(c2c1)[C@H](c1ccccc1)C[C@@H]1C(=O)N(c2ccccc2)C(=O)[C@H]31 | 17.6 µM |
| O=C1CCN2c3ccccc3[C@H]3Cc4cccc(c4[C@@H]2C3)CCO1 | > 100 µM |
| CCOC(=O)N/N=C(/N)c1cccc(Br)c1 | > 100 µM |
| CCOC(=O)[C@@H](C)C[C@H](Cc1ccccc1)NC(=O)c1csc([C@@H](C[C@H](C(C)C)N(C)C(=O)[C@@H](NC(=O)[C@H]2CCCCN2C)C(C)(C)CC)OC(C)=O)n1 | > 16.7 µM |
